Where a name gives a salt, the structure may show the parent alone.
For each record, write down the corresponding melting point.

**Q:** Reported melting point, compound O=C(CCCC1CCN(Cc2cccc(Cl)c2)CC1)c1ccc2c(c1)CCN(Cc1ccccc1)CC2 (as salt: hydrochloride) : ____
**A:** 230 to 234 °C (dec.)

**Q:** Reported melting point, compound O=C(CCC1CCN(Cc2cccc(F)c2)CC1)c1ccc2c(c1)CN(Cc1ccc(F)cc1)CCO2 (as salt: hydrochloride) [Example 81, Dihydrochloride] : ____
**A:** 228 to 231 °C

**Q:** Reported melting point, compound COc1ccc(CN2CCC(CCC(=O)c3ccc4c(c3)CCN(Cc3ccc(F)cc3)CC4)CC2)cc1OC (as salt: hydrochloride) : ____
**A:** 199 to 203 °C

**Q:** Reported melting point, compound O=C(CCC1CCN(Cc2ccc(C(F)(F)F)cc2)CC1)c1ccc2c(c1)CN(Cc1ccccc1)CCO2 (as salt: hydrochloride) : ____
**A:** 239 to 241 °C

**Q:** Reported melting point, compound O=C(CCC1CCN(Cc2cccc(C(F)(F)F)c2)CC1)c1ccc2c(c1)CN(Cc1ccccc1)CCO2 (as salt: hydrochloride) : ____
**A:** 235 to 237 °C

**Q:** Reported melting point, compound O=C(CCC1CCN(Cc2ccccc2C(F)(F)F)CC1)c1ccc2c(c1)CN(Cc1ccc(F)cc1)CCO2 (as salt: hydrochloride) : ____
**A:** 203 to 204 °C

---

Counter-ions that a name gives are not always drawn.
For each record, write down the corresponding melting point.

**Q:** Reported melting point, molecule COC(=O)c1ccccc1CN1CCc2ccc(C(=O)CCCC3CCN(Cc4ccccc4C)CC3)cc2CC1 (as salt: hydrochloride) : ____
**A:** 111 to 113 °C

**Q:** Reported melting point, molecule Cc1ccccc1CN1CCc2ccc(C(=O)CCCC3CCN(Cc4ccccc4NS(C)(=O)=O)CC3)cc2CC1 (as salt: hydrochloride) : ____
**A:** 185 to 195 °C (dec.)

**Q:** Reported melting point, molecule CC(=O)Nc1ccccc1CN1CCc2ccc(C(=O)CCCC3CCN(Cc4ccccc4Cl)CC3)cc2CC1 (as salt: hydrochloride) [Example 315, Dihydrochloride] : ____
**A:** 138 to 144 °C

**Q:** Reported melting point, molecule Cc1ccccc1CN1CCc2ccc(C(=O)CCCC3CCN(Cc4ccccc4C(N)=O)CC3)cc2CC1 (as salt: hydrochloride) [Example 254, Dihydrochloride] : ____
**A:** 201 to 220 °C (dec.)

**Q:** Reported melting point, molecule "Cc1ccccc1CN1CCC(CCCC(=O)c2ccc3c(c2)CCN(Cc2ccccc2)CC3)CC1.Cl.Cl" : ____
**A:** 226 to 229 °C (dec.)

**Q:** Reported melting point, molecule O=C(CCC1CCN(Cc2cc([N+](=O)[O-])cc([N+](=O)[O-])c2)CC1)c1ccc2c(c1)CN(Cc1ccccc1)CCO2 (as salt: hydrochloride) : ____
**A:** 232 °C (dec.)

**Q:** Reported melting point, molecule "Cc1cccc(CN2CCC(CCCC(=O)c3ccc4c(c3)CCN(Cc3ccccc3)CC4)CC2)c1.Cl.Cl" : ____
**A:** 222 to 225 °C (dec.)

**Q:** Reported melting point, molecule "Cc1ccc(CN2CCC(CCCC(=O)c3ccc4c(c3)CCN(Cc3ccc(C#N)cc3)CC4)CC2)cc1.Cl.Cl" : ____
**A:** 206 to 209 °C (dec.)

**Q:** Reported melting point, molecule "Cc1ccc(CN2CCC(CCCC(=O)c3ccc4c(c3)CCN(Cc3ccccc3)CC4)CC2)cc1.Cl.Cl" : ____
**A:** 207 to 210 °C (dec.)

**Q:** Reported melting point, molecule O=C(CCC1CCN(Cc2ccc(O)cc2)CC1)c1ccc2c(c1)CCN(Cc1ccc(F)cc1)CC2 (as salt: hydrochloride) : ____
**A:** 166 to 169 °C

**Q:** Reported melting point, molecule "Cl.O=C(CCC1CCN(C(=O)c2ccccc2)CC1)c1ccc2c(c1)CCN(Cc1ccccc1)CC2" : ____
**A:** 118 to 121 °C

**Q:** Reported melting point, molecule O=C(CCC1CCN(Cc2ccc(C(F)(F)F)cc2)CC1)c1ccc2c(c1)CN(Cc1ccc(F)cc1)CCO2 (as salt: hydrochloride) [Example 88, Dihydrochloride] : ____
**A:** 234 to 237 °C

**Q:** Reported melting point, molecule Cc1ccccc1CN1CCc2ccc(C(=O)CCCC3CCNCC3)cc2CC1 (as salt: hydrochloride) [Example 255, Dihydrochloride] : ____
**A:** 192 to 203 °C (dec.)

**Q:** Reported melting point, molecule COC(=O)c1cccc(CN2CCC(CCCC(=O)c3ccc4c(c3)CCN(Cc3ccccc3)CC4)CC2)c1 (as salt: hydrochloride) [Example 152, Dihydrochloride] : ____
**A:** 194 to 200 °C

**Q:** Reported melting point, molecule Cc1cccc(CN2CCC(CCCC(=O)c3ccc4c(c3)CCN(Cc3ccccc3C)CC4)CC2)c1 (as salt: hydrochloride) : ____
**A:** 179 to 182 °C

**Q:** Reported melting point, molecule CC(=O)N1CCC(CCC(=O)c2cc3c4c(c2)CCN4C(=O)CC3)CC1 [Example 66] : ____
**A:** 160 to 161 °C

**Q:** Reported melting point, molecule Cc1ccc(CN2CCC(CCCC(=O)c3ccc4c(c3)CCN(Cc3ccccc3[N+](=O)[O-])CC4)CC2)cc1 (as salt: hydrochloride) [Example 198, Dihydrochloride] : ____
**A:** 164 to 167 °C

**Q:** Reported melting point, molecule Cc1ccccc1CN1CCc2ccc(C(=O)CCCC3CCN(Cc4ccccc4N)CC3)cc2CC1 (as salt: hydrochloride) : ____
**A:** 230 to 235 °C

**Q:** Reported melting point, molecule O=C(CCCC1CCN(Cc2cccc(O)c2)CC1)c1ccc2c(c1)CCN(Cc1ccccc1)CC2 [Example 157] : ____
**A:** 88 to 94 °C

**Q:** Reported melting point, molecule O=C(O)COc1cccc(CN2CCC(CCC(=O)c3ccc4c(c3)CN(Cc3ccc(F)cc3)CCO4)CC2)c1 (as salt: hydrochloride) : ____
**A:** 201 to 204 °C

**Q:** Reported melting point, molecule CCN(CC)CCN1CCc2ccc(C(=O)CCCC3CCN(Cc4ccccc4C)CC3)cc2CC1 (as salt: hydrochloride) [Example 244, Trihydrochloride] : ____
**A:** 211 to 213 °C

**Q:** Reported melting point, molecule "Cc1ccc(CN2CCC(CCCC(=O)c3ccc4c(c3)CCN(Cc3ccc([N+](=O)[O-])cc3)CC4)CC2)cc1.Cl.Cl" : ____
**A:** 208 to 211 °C

**Q:** Reported melting point, molecule Cc1ccc(CN2CCc3ccc(C(=O)CCCC4CCN(Cc5ccc(F)cc5)CC4)cc3CC2)cc1 (as salt: hydrochloride) [Example 192, Dihydrochloride] : ____
**A:** 225 to 228 °C

**Q:** Reported melting point, molecule Cc1ccccc1CN1CCc2ccc(C(=O)CCCC3CCN(Cc4ccccc4C(=O)N4CCOCC4)CC3)cc2CC1 (as salt: hydrochloride) [Example 314, Dihydrochloride] : ____
**A:** 168 to 172 °C

**Q:** Reported melting point, molecule O=C(CCC1CCN(Cc2ccccc2Cl)CC1)c1ccc2c(c1)CN(Cc1ccc(F)cc1)CCO2 (as salt: hydrochloride) : ____
**A:** 227 to 229 °C

**Q:** Reported melting point, molecule Cc1ccccc1CN1CCC(CCC(=O)c2ccc3c(c2)CN(Cc2ccccc2)CCO3)CC1 (as salt: hydrochloride) : ____
**A:** 232 to 234 °C

Origin of measurements: patent US6534496B1
